# test description: yeast display, Sf9 membrane polyspecificity reagent, FACS + sequencing; frameworks hold sequencing errors

seq: QVQLVESGGGLVQAGGSLRLSCAASGSIYDSYDMGWYRQAPGKERELVAAITSGGSTNYADSVKGRFTISRDNAKITVYLQMNSLKPEDTAVYYCAAYYWYPVYYGYDYWGQGTQVTVSS
polyreactivity (PSR sort gate): low polyreactivity
//
seq: QVQLVESGGGLVQAGGSLRLSCAASGFIFWRNAMGWYRQAPGKERELVAAITSGDRTNYADSVKGRFTISRDNAKNTVYLQMNSLKPEDTAVYYCNARRLRLVSYDYCGQGTQVTVSS
polyreactivity (PSR sort gate): low polyreactivity
//
seq: QVQLVESGGGLVQAGGSLRLSCAASGSIFSSYAMGWYRPAPWKESELVAAITYNGGSTFYADSVKGRFTISRDNAKNTVYLPMYCLKPVDTAVYYCAAEYVGYYVYTWLYDYWGQGTQVTVSS
polyreactivity (PSR sort gate): high polyreactivity
//
seq: QVQLVESGGGLVQAGGSLRLSCAASGRTFDTYAMGWYRQAPGKEREFVARISYGGGITYYADSVKGRFTISRDNAKNTVYLQMNSLKPEDTAVYYCAARRFRTYDFYYWGQGTQVTVSS
polyreactivity (PSR sort gate): high polyreactivity
//
seq: QVQLVESGGGLVQAGGSLRLSCAASGRIFGWYAMGWYRQAPGNEREFVAAITVTGGSTYYADSVKGRCTISRDNAKNTVYLQMNSLKPEDTAVYYCAADRWYTRTGFDYWGQGTQVTVSS
polyreactivity (PSR sort gate): low polyreactivity
//
seq: QVQLVESGGGLVQAGGSLRLSCAASGSTFYPYAMGWYRQAPGKERELVAAISSGGSTNYADSVKGRFTISRDNAKNTVYLQMNSLKPEDTAVYYCAAEDWSLYDYGDRLWYSPYYYWGQGTQVTVSS
polyreactivity (PSR sort gate): high polyreactivity
//
seq: QVQLVESGGGLVQAGGSLRLSCAASGSIFTYKAMGWYRQAPGKERELVAAIRQRGGSTYYADSVKGRFTISRDNAKNTVYLQKNSLKPEDTAVYYCAARGSYVRSYYYYWGQGTQVTVSS
polyreactivity (PSR sort gate): high polyreactivity
//
seq: QVQLVESGGGLVQAGGSLRLSCAASGFTCASNDMGWSRQAPGKERELVAAITKGGGRTYYADSVKGRFTISRDNAKNTVYLQMNSLKPEDTAVYYCAARQLIKYDYWGPGTQVTVSS
polyreactivity (PSR sort gate): low polyreactivity
//
seq: QEQQQESGGGQLQAGGSLLLSCAASGNIIRYYYMGWYRQAPGKERELVAAITYGTSTNYADSVKGRFTISRDNAKYSVYLQMISLKPEDTAVYYCAVDVNYGDPLDNWGQGTQVTVSS
polyreactivity (PSR sort gate): high polyreactivity
//
seq: QVQLVESGGGLVQAGGSLRLSCAATGSTFTSYAMGWYRQAPGKERELVAVISFSGGSTYYADSVKGRFTISRDNAKNTVYLQMNSLKPEDTAVYYCAARIYKRYYWGQGTQVTVSS
polyreactivity (PSR sort gate): high polyreactivity
//
seq: QVQLVESGGGLVQAGGSLRLSCAASGITFRYYAMGWYRQAPGKERELVAAISDGGSTNYADSVKGRFTISRDNAKNTVYLQMNSLKPEDTAVYYCDADYRYLFDYWGQGTQVTVSS
polyreactivity (PSR sort gate): high polyreactivity
//
seq: QVHLVESGGGLVQAGGSIRLSCAASGRTLDPYTMGWYRQAPGKERELVAAITSSGGRTTYADSVKGRFTISRDNAKITVYLQMNSLKPEDTAVYYCAKKFRPVYRSQYLRYSWGQGTQVTVSS
polyreactivity (PSR sort gate): low polyreactivity
//
seq: QVQLVESGGGLVQAGGSLRISCAASGITFDQNAMGWYRQAPGKEREFVGAITRGSSTNYADSVKGRFTISRDNAKNTVYLQMNSLKPEETAVYYCNADGYARFRTYYCRDTREYDYWGQGTQVTVSS
polyreactivity (PSR sort gate): low polyreactivity
//
seq: QVQLVESGGGLVQAGGSLRLSCAASGSIFVLNAMGWYRQAPGKERELLAGITYSGGSTYYADSVKGRFTISRDNAKNTVYLQMNSLKPEDTAVYYCAAPVRRYPYPGRFYYWGQGTQVTVSS
polyreactivity (PSR sort gate): low polyreactivity
//
seq: QVQLVESGGGLVQAGGSLRLSCAASGRTFLWNALGWYRQAPGKESELVARINLSGGRTYYADSVKGRFTISRDNAKNCVYLQMNSLKPEDTAVYYCAATVVRYRRDSWGQGTQVTVSS
polyreactivity (PSR sort gate): low polyreactivity
//
seq: QVQLVESGGGLVQAGGSLRLSCAASGSIFKTYAMGWYRQAPGKERELVAAISSGGSTYYADSVKGRFTISRDNAKNTVYLELNSLKPEDTAVYYCAADPWGAFVSFASYYYWGQGTQVTVSS
polyreactivity (PSR sort gate): low polyreactivity
//
seq: QVQLVESGGGLVQAGGSLRLSCAASGRTLRKYAMGWYRQAPGKERELVAAISSSGGNTYYADSVKGRFTISRDNAKNTVYLQMNSLKPEDTAVYYCAAGFYYPTARVGYYYWGQGTQVTVSS
polyreactivity (PSR sort gate): high polyreactivity
//
seq: QVQLVESGGGLVQAGGSLRLSCAASGSIFISSDRRLDRQAPGKERALVAAMRSRVGSTYYADSVKGRFTISRENGKNSDYFQMNSLKPEDTAVYYCKKDNAVDRRPWFQVTYVYWVQGTQVTVSS
polyreactivity (PSR sort gate): low polyreactivity
//
seq: QVQLVESGGGLVQAGGSLRLSCAASGFTFSRNTMGWYRQAPGKERELVAAITWRGGSTYYADSVKGRFTISRDNAKNTVYLQMNSLKPEDTAVYYCAASSPNLEFDYWGQGTQVTVSS
polyreactivity (PSR sort gate): high polyreactivity
//
seq: QVQLVESAGGLVQAGRSLRLSCAASGRNFLGNDMGWYRQAPGKERELVAAISYGDGSTYYADSVKGRFTISRDNAKNTVYLQMNSLKPEDTAVYYCAAERYTIPPIYDYWGQGTQVTVSS
polyreactivity (PSR sort gate): low polyreactivity
//
seq: QVQLVDSGGGLVQAGGSLRLSCAASGFTFADNAMGWYRQAPGKEREFVAAITWTADSTYYADSVKGRFTISRDNAKNTVYVQMNSLKPEDTAVYYCAASYSTIWTLYYYWGQGTQVTVSS
polyreactivity (PSR sort gate): low polyreactivity
